Reference source for all entries: patent US20250179045A1

Target: human LPA1 (Homo sapiens, UniProt Q92633)
Sequence (Q92633 whole entry): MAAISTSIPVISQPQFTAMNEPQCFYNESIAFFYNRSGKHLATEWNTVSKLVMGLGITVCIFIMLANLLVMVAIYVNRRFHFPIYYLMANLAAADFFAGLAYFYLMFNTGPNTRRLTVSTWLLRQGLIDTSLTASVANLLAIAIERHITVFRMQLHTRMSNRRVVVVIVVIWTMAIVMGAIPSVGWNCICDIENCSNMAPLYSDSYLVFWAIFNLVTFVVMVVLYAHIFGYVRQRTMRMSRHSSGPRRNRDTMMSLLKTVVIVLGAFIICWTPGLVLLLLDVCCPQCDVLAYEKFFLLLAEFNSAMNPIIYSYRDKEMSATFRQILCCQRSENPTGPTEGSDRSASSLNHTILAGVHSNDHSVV
Assay: In vitro functional assay of lysophosphatidic acid receptor 1 activity (calcium flux)
Type: cell-based
Conditions: LPA1 IC50, B103 cells stably expressing human LPA1; Fluo-4 NW calcium flux after lysophosphatidic acid (18:1) at EC80; compounds 100 pM to 10 μM
Method: In vitro functional assay of lysophosphatidic acid receptor 1 activity Primary compound plates were prepared in 100% DMSO (Sigma-Aldrich), secondary compound plates were prepared at 10× concentration in DiVEM (Invitrogen), and tertiary compound plates were prepared at 3x concentration in assay buffer containing HBSS (no Ca^+2/Mg^+2, Invitrogen) and 0.1% BSA (Sigma-Aldrich). […] Sigmoidal dose-response curves were generated by measuring […] over 45 sec and calculating the area under the curve. […]
pIC50: −log10 of the molar value.
measured metric: pIC50

Returns the measured pIC50 for the input compound. Input: COc1ccc(NC(=O)C2(c3ccccc3C(C)C)CCNC(=O)C2)c(OC(F)F)n1 (stereo not shown)
6.00 to 7.00
